target: Sushi domains (SD1/2) protein of the GABAB1a (GB1a) subunit, recombinant; test: FP competition
Sequence (Q9Z0U4 29-158): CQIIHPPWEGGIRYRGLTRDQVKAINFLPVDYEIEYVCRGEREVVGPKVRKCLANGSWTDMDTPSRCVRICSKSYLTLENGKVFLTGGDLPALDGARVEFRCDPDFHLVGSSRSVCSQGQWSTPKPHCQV
Non-standard residues stand in square brackets, D forms with d. NMeD = CN[C@@H](CC(=O)O)C(=O)O
PROPERTY_MEASURED: Ki

Ac-EDDSDVWWGAADTD-NH2 […]    731 nM

Now consider the entry below.
Q: Name the recorded Ki of the binder listed here: Ac-ETEFIAWGPTG[NMeD]ED-NH2 (SMILES CC[C@H](C)[C@H](NC(=O)[C@H](Cc1ccccc1)NC(=O)[C@H](CCC(=O)O)NC(=O)[C@@H](NC(=O)[C@H](CCC(=O)O)NC(C)=O)[C@@H](C)O)C(=O)N[C@@H](C)C(=O)N[C@@H](Cc1c[nH]c2ccccc12)C(=O)NCC(=O)N1CCC[C@H]1C(=O)N[C@H](C(=O)NCC(=O)N(C)[C@@H](CC(=O)O)C(=O)N[C@@H](CCC(=O)O)C(=O)N[C@@H](CC(=O)O)C(N)=O)[C@@H](C)O) […(N-Me-D)ED]
Result: 45 nM

The reported numbers originate from patent US20260193293A1.
